system: T1, CD3ε homodimer protein (human, UniProt P07766 23-126, limits assumed, sulfo-tag or biotin label in some ECL assays)
T1 construct: also called human CD3ε homodimer protein; CD3 (CD3ε)
T1 sequence (P07766 23-126 limits assumed): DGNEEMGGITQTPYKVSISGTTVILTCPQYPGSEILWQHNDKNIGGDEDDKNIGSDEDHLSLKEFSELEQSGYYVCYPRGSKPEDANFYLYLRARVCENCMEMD
assay_info: SPR, CD3ε homodimer on chip;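 also: biacore SPR with antibody variants flowed as analyte over amine-coupled CD3ε homodimer on a CM chip, bound amount of each single-residue H chain variant over that of parent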
measured_endpoint: ratio of amounts bound vs CE115HA000
Write the value as a bare number.

Solved cases (2 shown):
CE115HA000 K52bY (antibody, name in Kabat numbering, V domains shown) VH: QVQLVESGGGVVQPGRSLRLSCAASGFTFSNAWMHWVRQAPGKGLEWVAQIKAYSNNYATYYAESVKGRFTISRDDSKNSLYLQMNSLKTEDTAVYYCRYVHYGAYYGVDAWGQGTTVTVSS VL: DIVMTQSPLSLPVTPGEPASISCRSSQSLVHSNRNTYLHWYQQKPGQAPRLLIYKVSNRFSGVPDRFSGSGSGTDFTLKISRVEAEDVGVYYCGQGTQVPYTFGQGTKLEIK = 0.74
CE115HA000 W33H (antibody, name in Kabat numbering, V domains shown) VH: QVQLVESGGGVVQPGRSLRLSCAASGFTFSNAHMHWVRQAPGKGLEWVAQIKAKSNNYATYYAESVKGRFTISRDDSKNSLYLQMNSLKTEDTAVYYCRYVHYGAYYGVDAWGQGTTVTVSS VL: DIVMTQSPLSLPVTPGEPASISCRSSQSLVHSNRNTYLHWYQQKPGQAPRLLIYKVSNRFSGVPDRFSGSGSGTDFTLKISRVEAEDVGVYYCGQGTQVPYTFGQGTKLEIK = 0.13

Give the measured ratio of amounts bound vs CE115HA000 of CE115HA000 D73R (antibody, name in Kabat numbering, V domains shown) VH: QVQLVESGGGVVQPGRSLRLSCAASGFTFSNAWMHWVRQAPGKGLEWVAQIKAKSNNYATYYAESVKGRFTISRDRSKNSLYLQMNSLKTEDTAVYYCRYVHYGAYYGVDAWGQGTTVTVSS VL: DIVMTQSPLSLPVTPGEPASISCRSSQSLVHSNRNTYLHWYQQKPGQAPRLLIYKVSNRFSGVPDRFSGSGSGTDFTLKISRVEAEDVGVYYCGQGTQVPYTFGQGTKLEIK .
1.04
